ASSAY_EXPLANATION: in vivo
Design: species or system mice
COND: male, NODSCID 1L2RγKO, mouse, iv, total radioactivity, Blood uptake
Each entry below carries its reported tissue uptake at 120 h.
MEASUREMENT_LABEL: tissue uptake at 120 h (%ID/g)

COMPOUND	TEST_VALUE
COc1ccc(CCCC(=O)NCC(=O)N[C@@H](CCCCNC(=O)CN2CCN(CC(=O)O)CCN(CC(=O)O)CCN(CC(=O)O)CC2)C(=O)NC[C@H]2CC[C@H](C(=O)N[C@@H](Cc3c4ccccc4cc4ccccc34)C(=O)NCCCC[C@H](NC(=O)N[C@@H](CSCC(=O)O)C(=O)O)C(=O)O)CC2)cc1 [177Lu-HTK04048, metal not drawn]	0.05
O=C(O)CCC[C@H](NC(=O)N[C@@H](CCCCNC(=O)[C@H](Cc1c2ccccc2cc2ccccc12)NC(=O)[C@H]1CC[C@H](CNC(=O)[C@H](CCCCNC(=O)CN2CCN(CC(=O)O)CCN(CC(=O)O)CCN(CC(=O)O)CC2)NC(=O)CNC(=O)CCCc2ccc(Cl)cc2)CC1)C(=O)O)C(=O)O [177Lu-HTK03153, metal not drawn]	0.37

---

ASSAY_EXPLANATION: in vivo
COND: male, NODSCID 1L2RγKO, mouse, iv, total radioactivity, Pancreas uptake
Each entry below carries its reported tissue uptake at 1 h.

COMPOUND	tissue uptake at 1 h
O=C(O)CCC[C@H](NC(=O)N[C@@H](CCCCNC(=O)[C@H](Cc1c2ccccc2cc2ccccc12)NC(=O)c1ccc(NC(=O)CN2CCN(CC(=O)O)CCN(CC(=O)O)CCN(CC(=O)O)CC2)cc1)C(=O)O)C(=O)O [68Ga-HTK04041, metal not drawn]	0.15 %ID/g
O=C(O)CCC[C@H](NC(=O)N[C@@H](CCCCNC(=O)[C@H](Cc1c2ccccc2cc2ccccc12)NC(=O)Cc1ccc(CNC(=O)CN2CCN(CC(=O)O)CCN(CC(=O)O)CCN(CC(=O)O)CC2)cc1)C(=O)O)C(=O)O [68Ga-HTK04036, metal not drawn]	0.13 %ID/g
O=C(O)CC[C@H](NC(=O)N[C@@H](CCCCNC(=O)[C@H](Cc1c2ccccc2cc2ccccc12)NC(=O)[C@H]1CC[C@H](CNC(=O)CN2CCN(CC(=O)O)CCN(CC(=O)O)CCN(CC(=O)O)CC2)CC1)C(=O)O)C(=O)O [68Ga-HTK03041, metal not drawn]	1.47 %ID/g
O=C(O)CCC[C@H](NC(=O)N[C@@H](CCCCNC(=O)[C@H](Cc1cccc(I)c1)NC(=O)[C@H]1CC[C@H](CNC(=O)CN2CCN(CC(=O)O)CCN(CC(=O)O)CCN(CC(=O)O)CC2)CC1)C(=O)O)C(=O)O [68Ga-HTK04053, metal not drawn]	0.06 %ID/g

---

ASSAY_EXPLANATION: in vivo
Parameters: species or system mice
COND: male, NODSCID 1L2RγKO, mouse, iv, total radioactivity, Spleen uptake
MEASUREMENT_LABEL: tissue uptake at 4 h

COMPOUND	TEST_VALUE
COc1ccc(CCCC(=O)NCC(=O)N[C@@H](CCCCNC(=O)CN2CCN(CC(=O)O)CCN(CC(=O)O)CCN(CC(=O)O)CC2)C(=O)NC[C@H]2CC[C@H](C(=O)N[C@@H](Cc3c4ccccc4cc4ccccc34)C(=O)NCCCC[C@H](NC(=O)N[C@@H](CSCC(=O)O)C(=O)O)C(=O)O)CC2)cc1 [177Lu-HTK04048, metal not drawn]	2.1 %ID/g
O=C(O)CCC[C@H](NC(=O)N[C@@H](CCCCNC(=O)[C@H](Cc1c2ccccc2cc2ccccc12)NC(=O)[C@H]1CC[C@H](CNC(=O)CN2CCN(CC(=O)O)CCN(CC(=O)O)CCN(CC(=O)O)CC2)CC1)C(=O)O)C(=O)O [177Lu-HTK03149, metal not drawn]	0.09 %ID/g
COc1ccc(CCCC(=O)NCC(=O)N[C@@H](CCCCNC(=O)CN2CCN(CC(=O)O)CCN(CC(=O)O)CCN(CC(=O)O)CC2)C(=O)NC[C@H]2CC[C@H](C(=O)N[C@@H](Cc3c4ccccc4cc4ccccc34)C(=O)NCCCC[C@H](NC(=O)N[C@@H](CCCC(=O)O)C(=O)O)C(=O)O)CC2)cc1 [177Lu-HTK03170, metal not drawn]	0.96 %ID/g

---

ASSAY_EXPLANATION: in vivo
Parameters: species or system mice
COND: male, NODSCID 1L2RγKO, mouse, iv, total radioactivity, Stomach uptake

MOLECULE	VALUE_UNITS	tissue uptake at 24 h
COc1ccc(CCCC(=O)NCC(=O)N[C@@H](CCCCNC(=O)CN2CCN(CC(=O)O)CCN(CC(=O)O)CCN(CC(=O)O)CC2)C(=O)NC[C@H]2CC[C@H](C(=O)N[C@@H](Cc3c4ccccc4cc4ccccc34)C(=O)NCCCC[C@H](NC(=O)N[C@@H](CCCC(=O)O)C(=O)O)C(=O)O)CC2)cc1 [177Lu-HTK03170, metal not drawn]	%ID/g	0.25
COc1ccc(CCCC(=O)NCC(=O)N[C@@H](CCCCNC(=O)CN2CCN(CC(=O)O)CCN(CC(=O)O)CCN(CC(=O)O)CC2)C(=O)NC[C@H]2CC[C@H](C(=O)N[C@@H](Cc3c4ccccc4cc4ccccc34)C(=O)NCCCC[C@H](NC(=O)N[C@@H](CSCC(=O)O)C(=O)O)C(=O)O)CC2)cc1 [177Lu-HTK04048, metal not drawn]	%ID/g	0.89
O=C(O)CCC[C@H](NC(=O)N[C@@H](CCCCNC(=O)[C@H](Cc1c2ccccc2cc2ccccc12)NC(=O)[C@H]1CC[C@H](CNC(=O)[C@H](CCCCNC(=O)CN2CCN(CC(=O)O)CCN(CC(=O)O)CCN(CC(=O)O)CC2)NC(=O)CNC(=O)CCCc2ccc(Cl)cc2)CC1)C(=O)O)C(=O)O [177Lu-HTK03153, metal not drawn]	%ID/g	0.68
COc1ccc(CCCC(=O)NCC(=O)N[C@@H](CCCCNC(=O)CN2CCN(CC(=O)O)CCN(CC(=O)O)CCN(CC(=O)O)CC2)C(=O)NC[C@H]2CC[C@H](C(=O)N[C@@H](Cc3c4ccccc4cc4ccccc34)C(=O)NCCCC[C@H](NC(=O)N[C@@H](COCC(=O)O)C(=O)O)C(=O)O)CC2)cc1 [177Lu-HTK04028, metal not drawn]	%ID/g	0.31
O=C(O)CCC[C@H](NC(=O)N[C@@H](CCCCNC(=O)[C@H](Cc1c2ccccc2cc2ccccc12)NC(=O)[C@H]1CC[C@H](CNC(=O)CN2CCN(CC(=O)O)CCN(CC(=O)O)CCN(CC(=O)O)CC2)CC1)C(=O)O)C(=O)O [177Lu-HTK03149, metal not drawn]	%ID/g	0.13

---

ASSAY_EXPLANATION: in vivo
Parameters: species or system mice
COND: male, NODSCID 1L2RγKO, mouse, iv, total radioactivity, Lungs uptake
MEASUREMENT_LABEL: tissue uptake at 24 h

COMPOUND	MEASUREMENT_LABEL	TEST_VALUE
O=C(O)CCC[C@H](NC(=O)N[C@@H](CCCCNC(=O)[C@H](Cc1c2ccccc2cc2ccccc12)NC(=O)[C@H]1CC[C@H](CNC(=O)CN2CCN(CC(=O)O)CCN(CC(=O)O)CCN(CC(=O)O)CC2)CC1)C(=O)O)C(=O)O [177Lu-HTK03149, metal not drawn]	tissue uptake at 24 h	0.12 %ID/g
O=C(O)CCC[C@H](NC(=O)N[C@@H](CCCCNC(=O)[C@H](Cc1c2ccccc2cc2ccccc12)NC(=O)[C@H]1CC[C@H](CNC(=O)[C@H](CCCCNC(=O)CN2CCN(CC(=O)O)CCN(CC(=O)O)CCN(CC(=O)O)CC2)NC(=O)CNC(=O)CCCc2ccc(Cl)cc2)CC1)C(=O)O)C(=O)O [177Lu-HTK03153, metal not drawn]	tissue uptake at 24 h	3.93 %ID/g
COc1ccc(CCCC(=O)NCC(=O)N[C@@H](CCCCNC(=O)CN2CCN(CC(=O)O)CCN(CC(=O)O)CCN(CC(=O)O)CC2)C(=O)NC[C@H]2CC[C@H](C(=O)N[C@@H](Cc3c4ccccc4cc4ccccc34)C(=O)NCCCC[C@H](NC(=O)N[C@@H](CCCC(=O)O)C(=O)O)C(=O)O)CC2)cc1 [177Lu-HTK03170, metal not drawn]	tissue uptake at 24 h	0.72 %ID/g
COc1ccc(CCCC(=O)NCC(=O)N[C@@H](CCCCNC(=O)CN2CCN(CC(=O)O)CCN(CC(=O)O)CCN(CC(=O)O)CC2)C(=O)NC[C@H]2CC[C@H](C(=O)N[C@@H](Cc3c4ccccc4cc4ccccc34)C(=O)NCCCC[C@H](NC(=O)N[C@@H](CSCC(=O)O)C(=O)O)C(=O)O)CC2)cc1 [177Lu-HTK04048, metal not drawn]	tissue uptake at 24 h	1.09 %ID/g
COc1ccc(CCCC(=O)NCC(=O)N[C@@H](CCCCNC(=O)CN2CCN(CC(=O)O)CCN(CC(=O)O)CCN(CC(=O)O)CC2)C(=O)NC[C@H]2CC[C@H](C(=O)N[C@@H](Cc3c4ccccc4cc4ccccc34)C(=O)NCCCC[C@H](NC(=O)N[C@@H](COCC(=O)O)C(=O)O)C(=O)O)CC2)cc1 [177Lu-HTK04028, metal not drawn]	tissue uptake at 24 h	1.08 %ID/g

Measured values drawn from patent US11504441B2 for this set.
